# assay.summary: Single ascending oral dose study in healthy volunteers: plasma pharmacokinetics
# Type: in vivo, human
# condition.context: human, plasma, oral, 525 mg; read-out: AUC0-48, Mean
experimental.readout: AUC(0-t) (ng·h/mL)
A number alone suffices; assume ng·h/mL.

Consider the compound Cn1cc(S(=O)(=O)[C@@](C)(F)C2CCN(C(=O)Nc3ccon3)CC2)c(C(F)F)n1 [Compound I] and give its measured AUC(0-t).
58900

---

# assay.summary: Single ascending oral dose study in healthy volunteers: plasma pharmacokinetics
# Format: in vivo, human
# condition.context: human, plasma, oral, 175 mg, 12 Hours Postdose; 175 mg; read-out: Plasma concentration, Mean
experimental.readout: concentration at 12 h (ng/mL)
A number alone suffices; assume ng/mL.

Consider the molecule `Cn1cc(S(=O)(=O)[C@@](C)(F)C2CCN(C(=O)Nc3ccon3)CC2)c(C(F)F)n1` and give its measured concentration at 12 h.
1050
